From: patent US20170260272A1

Field: Kd. Provide a value for each of the binders that follow.
Experimental Target: APP-Avi-soluble human LOX-1(61-273) (human, UniProt P78380 61-273)
Assay Details: SET, IgG vs soluble human LOX-1
Note: unit pM is implicit; provide only the numeric part.

q: Request the reported Kd associated with MOR021458 (antibody, V domains shown, IgG (human IgG1f LALA); parent MOR20144 with the printed HCDR2 stretch exchanged) VH: QVQLLESGGGLVQPGGSLRLSCAASGFTFSDYALHWVRQAPGKGLEWVSSISYVGGFIYYADSVKGRFTISRDNSKNTLYLQMNSLRAEDTAVYYCARSPGLTSYHDSWGQGTLVTVSS VL: DIVLTQPPSVSGAPGQRVTISCSGSSSNIGSNYVSWYQQLPGTAPKLLIHSNSHRPSGVPDRFSGSKSGTSASLAITGLQAEDEADYYCQSWDYESERVVFGGGTKLTVLG
a: 0.6

q: Same question for MOR021468 (antibody, human IgG1, lambda, L234A L235A, V domains shown, also called MOR21468) VH: QVQLLESGGGLVQPGGSLRLSCAASGFTFSDYALHWVRQAPGKGLEWVSVISYAGGFKFYADSVKGRFTISRDNSKNTLYLQMNSLRAEDTAVYYCARSPGLTSYHDSWGQGTLVTVSS VL: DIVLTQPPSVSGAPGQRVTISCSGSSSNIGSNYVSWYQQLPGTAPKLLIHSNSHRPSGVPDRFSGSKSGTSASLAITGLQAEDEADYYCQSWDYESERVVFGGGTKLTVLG please.
a: 0.65

q: Same question for MOR021553 (antibody, V domains shown, IgG (human IgG1f LALA); parent MOR20148 with the printed HCDR2 stretch exchanged) VH: QVQLLESGGGLVQSGGSLRLSCAASGFTFRSGAAMHWVRQAPGKGLEWVSSIEYFGSATLYADSVKGRFTISRDNSKNTLYLQMNSLRAEDTAVYYCARNFKYAMDYWGQGTLVTVSS VL: DIALTQPASVSGSPGQSITISCTGTSSDVGSINYVSWYQQHPGKAPKMIYAVSYRPSGVSNRFSGSKSGNTASLTISGLQAEDEADYYCQVWDWRSDSRVFGGGTKLTVLG please.
a: 6
